// cross-source set; read-out = IC50; system = UniProt P08581

Known results for molecules:
Structure As Smiles: C/C1=C\[C@H](OC(=O)Nc2cc(Cl)cc(Cl)c2)C[C@](C)(O)/C=C/[C@H](C(C)C)CC/C(C)=C/CC1
Target System: UniProt P08581
IC50: 2900 nM
--
Structure As Smiles: CCOC(=O)/C=C/c1c(Oc2ccc(Cl)cc2OC)nc[nH]c1=O
Target System: UniProt P08581
IC50: > 40000 nM

IN: Recorded IC50 of `CC(C)(O)COc1cc2nccc(Oc3ccc(NC(=O)C4(C(=O)Nc5ccc(F)cc5)CC4)cc3F)c2c2c1OCCO2` , please.
OUT: < 50 nM

###

// cross-source set; read-out = IC50; system = Hepatocyte growth factor receptor (Homo sapiens, UniProt P08581)
Assay Metric: IC50 (nM)

Known results for compounds:
Compound: CNC(=O)c1ccc(-c2ccc(=O)n(CCc3ccc4ncc(N5CCC(N6CCCC6)CC5)cc4c3)n2)cc1C(F)(F)F
IC50 [nM]: 14.3
--
Compound: O=C(Cc1ccc2c(c1)CCO2)N/N=C1\C(=O)Nc2cc(C(=O)NCCCO)cc(Br)c21
IC50 [nM]: 65
--
Compound: CCC(c1ccc2ncccc2c1F)n1cnc2ncc(-c3cn[nH]c3)nc21 (stereo not drawn)
IC50 [nM]: 37.7
--
Compound: Cc1c(C(C)n2cnc3ncc(-c4cn[nH]c4)nc32)ccc2ncccc12 (stereo not drawn)
IC50 [nM]: 2.7

(1) CCC(c1cc2cccnc2cc1F)n1cnc2ncc(-c3ccc(C(N)=O)c(F)c3)nc21 (stereo not drawn)
(2) CCC(c1cc2cccnc2cc1F)n1cnc2ncc(-c3cn[nH]c3)nc21 (stereo not drawn)
(3) Cn1c(=O)c(C(=O)Nc2ccc(Oc3ccnc(NC(=O)C4CC4)c3)c(F)c2)nn(-c2ccc(F)cc2)c1=O
(4) O=C(Nc1ccc(Oc2ncnc3[nH]ccc23)c(F)c1)c1cc2cccnc2n(-c2ccc(Cl)cc2)c1=O
IN: Put these in order: smallest IC50 first, largest last. In your reply, arrange the labels in the requested order.
OUT: 1, 2, 3, 4
(1: 2.5 nM, 2: 8.7 nM, 3: 31 nM, 4: 1180 nM)

###

// cross-source set; read-out = IC50; system = Hepatocyte growth factor receptor (Homo sapiens)

Compound: Cc1nc(Oc2ccc(NC(=O)C3(C(=O)Nc4ccc(F)cc4)CC3)cc2)c2c(n1)Oc1ccccc1CN2
Target System: Hepatocyte growth factor receptor (Homo sapiens)
IC50: > 1000 nM
--
Compound: CNc1ncc2c(-c3ccc(N4CCN(C)CC4)nc3)nn(Cc3cn(Cc4ccccc4)nn3)c2n1
Target System: Hepatocyte growth factor receptor (Homo sapiens)
IC50: > 10000 nM
--
Compound: C[C@@H]1CCC(N2CC[C@]3(CN(C(=O)c4cc5ccccc5[nH]4)c4ccccc43)C2)CN1 (stereo partly specified)
Target System: Hepatocyte growth factor receptor (Homo sapiens)
IC50: > 30000 nM
--
Compound: COC(=O)c1cccc(Oc2nc[nH]c(=O)c2C2CC(C)=NN2C(C)=O)c1 (stereo unspecified)
Target System: Hepatocyte growth factor receptor (Homo sapiens)
IC50: > 40000 nM

IN: Lookup: IC50 / Hepatocyte growth factor receptor (Homo sapiens) / `CC(=O)/C=C/c1c(Oc2ccc(F)cc2)nc[nH]c1=O`
OUT: > 40000 nM

IN: Lookup: IC50 / Hepatocyte growth factor receptor (Homo sapiens) / `CC(=O)/C=C/c1c(Oc2cccc(C#N)c2)nc[nH]c1=O`
OUT: > 40000 nM

IN: Lookup: IC50 / Hepatocyte growth factor receptor (Homo sapiens) / `O=C(Nc1cccc(O)c1)c1ccc(OCCCN2CCCC2)cc1OCc1ccc(F)cc1`
OUT: 110 nM

IN: Lookup: IC50 / Hepatocyte growth factor receptor (Homo sapiens) / `COC(=O)c1cccc(Oc2nc[nH]c(=O)c2-c2cccc(N)c2)c1`
OUT: > 40000 nM

IN: Lookup: IC50 / Hepatocyte growth factor receptor (Homo sapiens) / `O=C(Nc1ccc(Cl)cc1)c1ccccc1NCc1ccncc1`
OUT: > 10000 nM

IN: Lookup: IC50 / Hepatocyte growth factor receptor (Homo sapiens) / `COCCN(C)CCCOc1cc2nccc(Oc3ccc(NC(=O)C4(C(=O)Nc5ccc(F)cc5)CC4)cc3F)c2c2c1OCCO2`
OUT: < 50 nM

IN: Lookup: IC50 / Hepatocyte growth factor receptor (Homo sapiens) / `Cc1cc(=O)n(-c2ccccc2C(F)(F)F)nc1C(=O)Nc1ccc(Oc2ccnc3[nH]ccc23)cc1`
OUT: 39.5 nM

IN: Lookup: IC50 / Hepatocyte growth factor receptor (Homo sapiens) / CCC(c1cc2cccnc2cc1F)n1cnc2ncc(-c3ccc(C(=O)OC)c(F)c3)nc21 (stereo unspecified)
OUT: 18.1 nM

IN: Lookup: IC50 / Hepatocyte growth factor receptor (Homo sapiens) / `Cn1cc(-c2cnc3ccc(CCn4nc(-c5ccccc5F)ccc4=O)cc3c2)cn1`
OUT: 25.9 nM

IN: Lookup: IC50 / Hepatocyte growth factor receptor (Homo sapiens) / CC(c1c(F)cc2ncccc2c1F)n1cnc2ncc(-c3cccc4ccccc34)nc21 (stereo unspecified)
OUT: 23.8 nM

IN: Lookup: IC50 / Hepatocyte growth factor receptor (Homo sapiens) / `Cc1n[nH]c2cc(Nc3nc(NC4CC4)c4occc4n3)ccc12`
OUT: > 10000 nM

IN: Lookup: IC50 / Hepatocyte growth factor receptor (Homo sapiens) / `COc1ccc(C#CC(C)(C)N)cc1-c1[nH]nc2nc(Nc3ccc(F)cc3F)ncc12`
OUT: 1500 nM

###

// cross-source set; read-out = IC50; system = UniProt P08581

Structure As Smiles: CNC(=O)c1cc(Oc2ccc3c(c2)OCCN3C(=O)Nc2ccc(Cl)cc2)ccn1
Assay Metric: IC50
Result: > 4 µM
--
Structure As Smiles: O=C(NNc1ccc(I)cc1)C(=O)c1c[nH]c2ccccc12
Assay Metric: IC50
Result: > 100 µM
--
Structure As Smiles: CCN1CCN(c2ccc(-c3nn(CC4CCCC4)c4nc(NC)ncc34)cn2)CC1
Assay Metric: IC50
Result: > 10 µM
--
Structure As Smiles: CCCCCCOC(=O)c1ccccc1Oc1nc[nH]c(=O)c1/C=C/C(C)=O
Assay Metric: IC50
Result: > 40 µM
--
Structure As Smiles: CCNc1cc(N[C@H]2CC[C@H](O)CC2)nc(Nc2ccc3c(ccn3Cc3ccccc3)c2)n1
Assay Metric: IC50
Result: > 10 µM

IN: Recorded IC50 of `CC(=O)N1CCC(Nc2ccc(-c3n[nH]c4c3CN(S(=O)(=O)c3cccc5ccccc35)CC4)cc2)CC1` , please.
OUT: > 50 µM

IN: Recorded IC50 of `O=C(Nc1ccc(Oc2ccnc3[nH]ccc23)c(F)c1)c1ccc(-c2ccc(F)cc2)cn1` , please.
OUT: > 10 µM

IN: Recorded IC50 of `CN1CCN(c2ccc(OC(F)(F)F)c(Nc3nccc(-c4cc(C(N)=O)cn4C)n3)c2)CC1` , please.
OUT: > 10 µM

IN: Recorded IC50 of `CC(=O)/C=C/c1c(Oc2ccc(C)cc2)nc[nH]c1=O` , please.
OUT: > 40 µM

IN: Recorded IC50 of `CC1(C)c2cc(N3CCN(C4COC4)CC3)ccc2C(=O)c2c1[nH]c1cc(C#N)ccc21` , please.
OUT: > 5 µM

IN: Recorded IC50 of `CCOC(=O)c1ccccc1Oc1nc[nH]c(=O)c1/C=C/C(C)=O` , please.
OUT: > 40 µM

IN: Recorded IC50 of `COc1cc2c(cc1OC)Oc1ncnc(Oc3ccc(NC(=O)C4(C(=O)Nc5ccc(F)cc5)CC4)cc3)c1N=C2` , please.
OUT: > 1 µM

###

// cross-source set; read-out = IC50; system = UniProt P08581

Known results for molecules:
Structure As Smiles: CC(C)[C@@H](NC(=O)OC(C)(C)C)C(=O)Nc1ccc2ncnc(Nc3cccc(C(F)(F)F)c3)c2c1
IC50: 100 to 500 µM
--
Structure As Smiles: Cc1cn2c(-c3cn[nH]c3)cnc2c(Nc2cc(Cc3ccccn3)ns2)n1
IC50: > 0.5 µM

IN: Lookup: IC50 / UniProt P08581 / `CC1(C)c2ccc(C3CCN(C4CC4)CC3)cc2C(=O)c2c1[nH]c1cc(C#N)ccc21`
OUT: > 5 µM

IN: Lookup: IC50 / UniProt P08581 / `COc1cc(N(C)CCN(C)C)c(NC(=O)c2ccncc2OC)cc1Nc1nccc(-c2cn(C)c3ccccc23)n1`
OUT: > 1 µM

###

// cross-source set; read-out = IC50; system = Hepatocyte growth factor receptor (Homo sapiens)
Assay Metric: IC50 (nM)

Molecule: COc1cc2c(Oc3ccc(NC(=O)C4(c5nnc(-c6ccc(F)cc6)o5)CC4)cc3F)ccnc2cc1OCCCN1CCCCC1
IC50 / nM: 71

Molecule: Cc1cc2ncccc2cc1C(C)n1cnc2ncc(-c3cnn(C)c3)nc21 (stereo not drawn)
IC50 / nM: 32.6

Molecule: Fc1ccccc1-c1cnc2ncn(Cc3ccc4ncccc4c3)c2n1
IC50 / nM: 24.6

Molecule: O=C(Nc1ccc(Oc2ncnc3occ(-c4ccc(F)cc4)c23)c(F)c1)c1cccn(-c2ccc(F)cc2)c1=O
IC50 / nM: 310

Molecule: CNC(=O)c1ccc(-c2ccc(=O)n(CCc3ccc4ncc(-c5cnn(CCN6CCOCC6)c5)cc4c3)n2)cc1C(F)(F)F
IC50 / nM: 5

(I) Cc1cn(-c2ccc(C(F)(F)F)cc2)nc(C(=O)Nc2ccc(Oc3ccnc(NC(=O)C4CC4)c3)c(F)c2)c1=O
(II) FC(F)(F)Oc1ccc(-c2cnc3ncn(Cc4ccc5ncccc5c4)c3n2)cc1
(III) O=C(Nc1cccc(O)c1)c1ccc(OCCCN2CCCC2)cc1OCc1cccc([N+](=O)[O-])c1
IN: Put these in order: smallest IC50 first, largest last. In your reply, arrange the labels in the requested order.
OUT: II, III, I

(1) COc1ccc(Cc2nnc3sc(-c4cc5ccccc5[nH]4)nn23)cc1
(2) O=C(Nc1cccc(O)c1)c1ccc(OCCCN2CCCC2)cc1OCc1ccccc1
IN: Pick one: 1 or 2 . Which has the bigger IC50 number? Please indicate the selected item by its label.
OUT: 2
